Item-by-item account of Inhibition
- System: Cryptococcus neoformans
- test-settings: Concentration 32 ug.mL-1; ASSAY_TEST Inhibition of Fungal Growth; detection method Resazurin; Absorption (OD600-OD570); plate type 384well; NBS; CORNING #3640
- Description: Antifungal activity against Cryptococcus neoformans H99 ATCC 208821 (CO-ADD:FG_002); MIC in YNB media using NBS plates, by Resazurin OD(600-570)
Potency and affinity values are given separately.
Kindly answer with a numeric value in %, unit omitted.

These solved cases illustrate the format of a correct answer.
| item-smiles | reported-endpoint | assay-value |
| --- | --- | --- |
| Cc1cc(C)cc(NC(=O)Cn2nc3ccc(-c4ccc(C)c(C)c4)nn3c2=O)c1 | Inhibition | -18.49 |
| O=C(CSc1nnc2c(=O)n(-c3cccc(F)c3)ccn12)Nc1ccc(Br)cc1F | Inhibition | -13.45 |
| CSc1ccc(CNC(=O)Cn2nc3c(Oc4cccc(C)c4C)nccn3c2=O)cc1 | Inhibition | -6.54 |
| COc1cccc(Oc2nccn3c(=O)n(CC(=O)Nc4cc(C)c(Cl)cc4OC)nc23)c1 | Inhibition | -7.05 |
| CCc1nnc2c(S(=O)(=O)N(Cc3cccc(F)c3)c3ccccc3)cccn12 | Inhibition | -7.54 |

*Q* Look up and report measured Inhibition for this entry: "Cc1cccc(NC(=O)Cn2nc3c4cc(-c5ccc(Cl)cc5)nn4ccn3c2=O)c1"
*A* -21.44

*Q* Look up and report measured Inhibition for this entry: "COc1ccc(NC(=O)Cn2nc3ccc(SC(C)(C)C)nn3c2=O)cc1Cl"
*A* -9.98

*Q* Look up and report measured Inhibition for this entry: "CCCCOc1ccc(-c2cc3c4nnc(SCC(=O)NCc5ccc(OC)cc5)n4ccn3n2)cc1"
*A* -16.44

*Q* Look up and report measured Inhibition for this entry: "Cc1c(Cl)cccc1-n1ccn2c(=O)n(Cc3c(F)cccc3Cl)nc2c1=O"
*A* -12.75

*Q* Look up and report measured Inhibition for this entry: "Cc1cc(C)cc(Nc2nc(C)cc3nn(CC(=O)NC4CCCCC4)c(=O)n23)c1"
*A* -8.46

---

- Test system: Cryptococcus neoformans
- test-settings: Concentration 32 ug.mL-1; ASSAY_TEST Inhibition of Fungal Growth; detection method Resazurin; Absorption (OD600-OD570); plate type 384well; NBS; CORNING #3640
Potency and affinity values are given separately.
Define the label as true when Inhibition is strictly less than -20% and as false in all remaining cases.

Below, 8 compounds whose answers are already recorded.
| item-smiles | assay-system | class-name |
| --- | --- | --- |
| CCCCN(C)c1ccc2nnc(CCc3nc(-c4cc(OC)cc(OC)c4)no3)n2n1 | Cryptococcus neoformans | false |
| CC(C)c1nnc2c(=O)n(CC(=O)Nc3ccc(C#N)cc3)c3ccccc3n12 | Cryptococcus neoformans | true |
| CCCCOc1ccc(-c2cc3c4nnc(SCC(=O)Nc5c(C)cccc5C)n4ccn3n2)cc1 | Cryptococcus neoformans | false |
| Cc1cccc(C)c1NC(=O)CSc1nnc2c3cc(-c4ccc(F)cc4)nn3ccn12 | Cryptococcus neoformans | false |
| COC(=O)c1cccc(NC(=O)Cn2nc3c(SCc4ccc(Cl)cc4)nccn3c2=O)c1 | Cryptococcus neoformans | false |
| COc1ccc(CNC(=O)Cn2nc3c(Sc4ccc(C)cc4C)nccn3c2=O)cc1 | Cryptococcus neoformans | false |
| O=C(CSc1nnc2c(=O)n(-c3ccccc3)ccn12)Nc1ccc(Br)cc1F | Cryptococcus neoformans | false |
| O=C(Cn1nc2c(SC3CCCCC3)nccn2c1=O)Nc1ccc(Br)cc1 | Cryptococcus neoformans | true |

*Q* Regarding "COc1cccc(-n2ccn3c(SCc4ccc(F)cc4)nnc3c2=O)c1" , kindly confirm whether its Inhibition is beneath -20%.
*A* false

*Q* Regarding "CC(C)c1nnc2c(=O)n(CC(=O)Nc3ccc(F)cc3F)c3ccccc3n12" , kindly confirm whether its Inhibition is beneath -20%.
*A* true

*Q* Regarding "O=C(CSc1nnc2c(=O)n(-c3ccccc3)ccn12)NCc1ccc(Cl)cc1" , kindly confirm whether its Inhibition is beneath -20%.
*A* false

*Q* Regarding "COc1ccc(-n2ccn3c(=O)n(Cc4ccccc4Cl)nc3c2=O)cc1Cl" , kindly confirm whether its Inhibition is beneath -20%.
*A* false

*Q* Regarding "CCc1ccccc1NC(=O)Cn1nc2cc(C)nc(Nc3ccc(F)cc3)n2c1=O" , kindly confirm whether its Inhibition is beneath -20%.
*A* false

*Q* Regarding "COc1ccc(-c2cc3c4nn(CC(=O)Nc5cccc(OC)c5)c(=O)n4ccn3n2)cc1" , kindly confirm whether its Inhibition is beneath -20%.
*A* true

*Q* Regarding "COc1ccc(NC(=O)Cn2nc3c(Sc4ccccc4)nccn3c2=O)c(OC)c1" , kindly confirm whether its Inhibition is beneath -20%.
*A* false

*Q* Regarding "O=S(=O)(c1cccn2cnnc12)N(Cc1cccc(F)c1)c1cccc(Cl)c1" , kindly confirm whether its Inhibition is beneath -20%.
*A* false

*Q* Regarding "Cc1cccc(N(Cc2cccc(Cl)c2)S(=O)(=O)c2cccn3c(C)nnc23)c1" , kindly confirm whether its Inhibition is beneath -20%.
*A* false

*Q* Regarding "Cc1ccc(-c2ccc3nn(Cc4cccc(Cl)c4)c(=O)n3n2)cc1C" , kindly confirm whether its Inhibition is beneath -20%.
*A* false

*Q* Regarding "CCCCN(C)c1ccc2nnc(CCc3nc(-c4ccc(OCc5ccccc5)cc4)no3)n2n1" , kindly confirm whether its Inhibition is beneath -20%.
*A* true

---

- System: Klebsiella pneumoniae
- test-settings: Concentration 32 ug.mL-1;; ASSAY_TEST Inhibition of Bacterial Growth; detection method Absorption (OD600); MEDIA CAMHB; plate type 384well; NBS; CORNING #3640; time 18 hr
- Description: Antibacterial activity against Klebsiella pneumoniae MDR ATCC 70063 (CO-ADD:GN_003); MIC in CAMBH media using NBS plates, by OD(600)
Potency and affinity values are given separately.
reported-endpoint: Inhibition
Note: a bare number is incomplete; add the unit.

These solved cases illustrate the format of a correct answer.
| compound | assay-system | Inhibition |
| --- | --- | --- |
| COc1cccc(-n2ccn3c(SCC(=O)NCc4ccco4)nnc3c2=O)c1 | Klebsiella pneumoniae | 16.06% |
| CCOc1ccc(-n2ccn3c(SCC(=O)c4c(C)[nH]c5ccccc45)nnc3c2=O)cc1 | Klebsiella pneumoniae | 3.78% |
| COc1cccc(Oc2nccn3c(=O)n(CC(=O)Nc4ccc(C(C)C)cc4)nc23)c1 | Klebsiella pneumoniae | -4.77% |
| COc1ccc(-c2cc3c4nn(CC(=O)Nc5ccccc5Cl)c(=O)n4ccn3n2)cc1 | Klebsiella pneumoniae | 4.39% |
| CCC(Sc1nnc2c(=O)n(-c3ccccc3)ccn12)C(=O)Nc1ccc(OC)cc1OC (stereo not given) | Klebsiella pneumoniae | 9.44% |
| O=C(Cn1nc2c(N3CCOCC3)nccn2c1=O)Nc1ccccc1Br | Klebsiella pneumoniae | 13.49% |

*Q* Write Inhibition of "CC(C)c1nnc2c(SCC(=O)N3CCN(c4ccccc4F)CC3)nc3ccccc3n12" ; system used: Klebsiella pneumoniae
*A* 4.71%

*Q* Write Inhibition of "O=C(Cn1nc2c3cc(-c4ccc(Cl)cc4)nn3ccn2c1=O)N1CCN(c2ccccc2)CC1" ; system used: Klebsiella pneumoniae
*A* 10.64%

*Q* Write Inhibition of "Cc1ccc(F)cc1NC(=O)CSc1nnc2ccc(C(=O)Nc3cccc(F)c3)cn12" ; system used: Klebsiella pneumoniae
*A* 2.35%

*Q* Write Inhibition of "CCCc1nnc2c(=O)n(CC(=O)Nc3ccc(Br)cc3)c3ccccc3n12" ; system used: Klebsiella pneumoniae
*A* 14.09%

---

- Test system: Cryptococcus neoformans
- test-settings: Concentration 32 ug.mL-1; ASSAY_TEST Inhibition of Fungal Growth; detection method Resazurin; Absorption (OD600-OD570); plate type 384well; NBS; CORNING #3640
Results with a measured potency or affinity are listed apart.
reported-endpoint: Inhibition (%)
Kindly answer with a numeric value in %, unit omitted.

These solved cases illustrate the format of a correct answer.
| item-smiles | units | assay-value |
| --- | --- | --- |
| COc1ccccc1-n1ccn2c(SCc3ccc(C)cc3)nnc2c1=O | % | -9.44 |
| Cc1ccc(C)c(Cn2nc3ccc(-c4ccc(C)c(C)c4)nn3c2=O)c1 | % | -14.79 |
| Cc1cccc(NC(=O)Cn2nc3ccc(-c4ccc(Cl)cc4)nn3c2=O)c1 | % | -6.79 |
| O=C(CSc1nnc2c(=O)n(-c3ccccc3)ccn12)Nc1cccc(F)c1 | % | -21.7 |
| Cc1cc(C)c(NC(=O)Cn2nc3c4cc(-c5ccc(C)c(C)c5)nn4ccn3c2=O)c(C)c1 | % | -17.51 |
| CCc1cccc(NC(=O)Cn2nc3c(SCc4ccc(Cl)cc4)nccn3c2=O)c1 | % | -20.82 |

*Q* Look up and report measured Inhibition for this entry: "Cc1ccc(CNC(=O)Cn2nc3c(Sc4cccc(F)c4)nccn3c2=O)cc1"
*A* -11.39

*Q* Look up and report measured Inhibition for this entry: "CCOc1ccc(-n2ccn3c(SCC(=O)NCc4ccccc4Cl)nnc3c2=O)cc1"
*A* -15.06

*Q* Look up and report measured Inhibition for this entry: "O=c1c2nnc(SCc3cccc(C(F)(F)F)c3)n2ccn1-c1ccc(Br)cc1"
*A* -8.16

*Q* Look up and report measured Inhibition for this entry: "COC(=O)c1ccc(NC(=O)Cn2nc3ccc(S(=O)(=O)C4CCCCC4)nn3c2=O)cc1"
*A* -8.73
